This collection of values is drawn from patent US20060257938A1.

test: Probe fluorescence ratio response to arachidonic acid relative to ADIFAB2; format: binding; conditions: arachidonic acid; response relative to ADIFAB2
METRIC_NAME: DR/DR AA
Give bare numbers.

38H 62W 106V 117A 72A (protein, listed as Rattus norvegicus, PEPTIDE (1)...(131) wild-type rat intestinal fatty acid binding protein) AFDGTWKVDRNENYEKFMEKMGINVVKRKLGAHDNLKHTITQEGNKFTVKESSNFRNIDVVWELGVDFAYSAADGTELTGTWTMEGNKLVGKFKRVDNGKELIAVVEISGNELIQTATYEGVEAKRIFKKE :: 2.007

Now for a further molecule.
Recorded DR/DR AA (molecule 102V, 72A (protein, listed as Rattus norvegicus, PEPTIDE (1)...(131) wild-type rat intestinal fatty acid binding protein) AFDGTWKVDRNENYEKFMEKMGINVVKRKLGAHDNLKLTITQEGNKFTVKESSNFRNIDVVFELGVDFAYSAADGTELTGTWTMEGNKLVGKFKRVDNGKEVIAVREISGNELIQTYTYEGVEAKRIFKKE ): 0.46
